Measured target: T1, human IL-23 (human, UniProt P29460 23-328; Q9NPF7 20-189)
T1 construct: Recombinant (Ebioscience); HIS-tagged in flow cytometry, biotinylated in some assays; also called hIL-23; rhIL-23
T1 sequence 1: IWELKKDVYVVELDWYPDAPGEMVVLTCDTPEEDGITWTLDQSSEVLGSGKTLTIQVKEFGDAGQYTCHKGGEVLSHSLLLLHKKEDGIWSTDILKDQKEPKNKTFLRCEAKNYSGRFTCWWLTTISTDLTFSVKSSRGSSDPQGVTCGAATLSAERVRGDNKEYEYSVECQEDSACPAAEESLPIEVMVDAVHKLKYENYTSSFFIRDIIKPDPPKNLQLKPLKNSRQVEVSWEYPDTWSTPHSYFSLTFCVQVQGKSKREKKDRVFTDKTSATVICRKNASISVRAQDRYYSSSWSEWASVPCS
T1 sequence 2: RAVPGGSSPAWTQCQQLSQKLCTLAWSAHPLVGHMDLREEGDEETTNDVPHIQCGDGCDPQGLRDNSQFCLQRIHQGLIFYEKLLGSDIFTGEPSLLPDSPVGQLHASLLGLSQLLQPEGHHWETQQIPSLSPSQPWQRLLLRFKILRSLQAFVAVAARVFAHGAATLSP
Assay: SPR, purified scFv captured via FLAG
Assay metric: kon (M⁻¹ s⁻¹)
# unit: M⁻¹ s⁻¹ | format: bare number

# annotated cases, reported kon shown
| Binder | Assay metric | Numeric readout |
| --- | --- | --- |
| scFv CR-B1 (scFv, scFv-80 variant: VH D85E; not shown: proprietary C-terminal FLAG tag) scFv: QVQLVQSGAEVKKPGASVKVSCKASGYTFTDYYLHWVRQAPGQGLEWMGWIDPENGDTEYAPKFQGRVTMTTDTSTSTAYMELRSLRSEDTAVYYCNANKELRYFDVWGQGTMVTVSSGGGGSGGGGSGGGGSEIVMTQSPATLSVSPGERATLSCRASQSISINLHWYQQKPGQAPRLLIYFASQSISGIPARFSGSGSGTEFTLTISSLQSEDFAVYYCQQSNSFPLTFGGGTKVEIKR | kon | 320000 |
| scFv AV-F11 (scFv, scFv-80 variant: VH S112P; VL I75T; not shown: proprietary C-terminal FLAG tag) scFv: QVQLVQSGAEVKKPGASVKVSCKASGYTFTDYYLHWVRQAPGQGLEWMGWIDPENGDTEYAPKFQGRVTMTTDTSTSTAYMELRSLRSDDTAVYYCNANKELRYFDVWGQGTMVTVPSGGGGSGGGGSGGGGSEIVMTQSPATLSVSPGERATLSCRASQSISINLHWYQQKPGQAPRLLIYFASQSISGIPARFSGSGSGTEFTLTTSSLQSEDFAVYYCQQSNSFPLTFGGGTKVEIKR | kon | 270000 |

Next:
Need kon, item scFv BU-B1 (scFv, scFv-80 variant: VH L34M; not shown: proprietary C-terminal FLAG tag) scFv: QVQLVQSGAEVKKPGASVKVSCKASGYTFTDYYMHWVRQAPGQGLEWMGWIDPENGDTEYAPKFQGRVTMTTDTSTSTAYMELRSLRSDDTAVYYCNANKELRYFDVWGQGTMVTVSSGGGGSGGGGSGGGGSEIVMTQSPATLSVSPGERATLSCRASQSISINLHWYQQKPGQAPRLLIYFASQSISGIPARFSGSGSGTEFTLTISSLQSEDFAVYYCQQSNSFPLTFGGGTKVEIKR
300000
